Record form. Attribute: protein stability index. Fill in for each entry.
B1: CCND1 (parent)
chain: IRRAYPDANLLNDRVLRAMLKAEE

Variants of: B1
ASSAY REMARKS: protein stability index of a GFP-peptide fusion (GPS, HEK-293T) (PSI 1-6); higher = more stable;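 further: lentivirally expressed fusions sorted by FACS into six bins by GFP to DsRed ratio, PSI derived from sequencing read proportions per bin multiplied by bin number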
APPLIED CONDITIONS: c terminus: a fixed tail appended
Number only, no unit.

// recorded protein stability index for V15I : 1.99

// recorded protein stability index for A22F : 1.92

// recorded protein stability index for A8N : 3.46

// recorded protein stability index for L10Y : 3.34

// recorded protein stability index for R2T : 2.92

// recorded protein stability index for L11V : 2.72

// recorded protein stability index for D7L : 1.84

// recorded protein stability index for M19W : 3.96

// recorded protein stability index for R2A : 3.82

// recorded protein stability index for N9F : 1.71

// recorded protein stability index for L11N : 1.97
